Tested on: RPMI 8226
Assay: Cell viability by DiOC6 staining, flow cytometry
Assay type: cell-based
Details: Homo sapiens, 72 h, 1x10^5 cells cultured three days, various concentrations
Would you mind telling me the reported IC50 of each entry?
Report only the number, with the unit µM understood.

Reported IC50, compound Nc1cccc2c1CN(C1CCC(=O)NC1=O)C2=O (racemic) [lenalidomide] : ____
2

Repeat for the following compound: Cc1cc(CC(C)CC(C)(C)C)n(O)c(=O)c1 (stereo not drawn)
0.6

Repeat for the following compound: Cc1cc(C2CCCCC2)n(O)c(=O)c1
6

Repeat for the following compound: COC1=CC(=O)C[C@@H](C)[C@]12Oc1c(Cl)c(OC)cc(OC)c1C2=O
26

Repeat for the following compound: C=C(CC)C(=O)c1ccc(OCC(=O)O)c(Cl)c1Cl
8
